Listed next: entries and their corresponding Lipase (RFU).
Tested on: lipase
Assay: Lipase/lipolysis assay (EnzChek Lipase Substrate, quenched BODIPY-fatty acid conjugate) on stored human milk; also: test concentration or dose not given here
OUTCOME_MEASURE: Lipase (RFU)

1. CS(=O)(=O)CC[C@H](N)C(=O)O [L-Methionine Sulfone] :: 897.1863
2. OC[C@H]1O[C@@](CO)(O[C@H]2O[C@H](CO)[C@@H](O)[C@H](O)[C@H]2O)[C@@H](O[C@H]2O[C@H](CO)[C@@H](O)[C@H](O)[C@H]2O)[C@@H]1O [D-(+)-Melezitose] :: 886.4563
3. CC(C)=CCC[C@](C)(O[C@@H]1O[C@H](CO[C@@H]2OC[C@H](O)[C@H](O)[C@H]2O)[C@@H](O)[C@H](O)[C@H]1O)[C@H]1CC[C@]2(C)[C@@H]1[C@H](O)C[C@@H]1[C@@]3(C)CC[C@H](O)C(C)(C)[C@@H]3[C@@H](O)C[C@]12C [Ginsenoside F3] :: 878.0505
4. C[C@]12CC[C@H]3[C@@H](CCC4=CC(=O)CC[C@@]43C)[C@@H]1CC[C@@H]2C(=O)CO [Deoxycorticosterone] :: 992.8813
5. Oc1cc(O)c2c(c1)O[C@H](c1ccc(O)c(O)c1)[C@H](O)[C@H]2c1c(O)cc(O)c2c1O[C@H](c1ccc(O)c(O)c1)[C@H](O)C2 [Procyanidin B2] :: 808.3168
6. CC(=O)O[C@@H]1CC[C@@]2(C)[C@@H](CC[C@]3(C)[C@@H]2C(=O)C=C2[C@@H]4[C@@H](C)[C@H](C)CC[C@]4(C)CC[C@]23C)[C@@]1(C)C(=O)O [AKBA] :: 1066.269
7. CN(CC(=O)O)C(=N)NP(=O)(O)O [Phosphocreatine] :: 915.1867
8. C[C@H]1O[C@@H](O[C@H]2[C@@H](O)C[C@H](O[C@H]3[C@@H](O)C[C@H](O[C@H]4CC[C@@]5(C)[C@H](CC[C@@H]6[C@@H]5CC[C@]5(C)[C@@H](C7=CC(=O)OC7)CC[C@]65O)C4)O[C@@H]3C)O[C@@H]2C)C[C@H](O)[C@@H]1O [Digitoxin] :: 1074.946
9. COc1ccc(C[C@H]2COC(=O)[C@]2(O)Cc2ccc(O[C@@H]3O[C@H](CO)[C@@H](O)[C@H](O)[C@H]3O)c(OC)c2)cc1OC [Tracheloside] :: 940.7065
10. O=C(O)CCCC(=O)O [Glutaric acid] :: 944.8681
11. COc1cc(C2Oc3ccc([C@H]4Oc5cc(O)cc(O)c5C(=O)[C@@H]4O)cc3OC2CO)ccc1O (stereo partly shown) [Isosilybin] :: 921.7702
12. CCN(CC)CCOC(=O)C(Cc1cccc2ccccc12)CC1CCCO1.O=C(O)C(=O)O (stereo not shown) [Naftidrofuryl (oxalate)] :: 1022.029
13. CCCCC1OC(=O)c2ccccc21 (stereo not shown) [Butylphthalide] :: 989.7778
14. C[C@]12CC[C@@H]3c4ccc(O)c(O)c4CC[C@H]3[C@@H]1CCC2=O [Compound 4-Hydroxyestrone] :: 1068.255
15. CCCCCCCCCCCCCC(=O)OC[C@H](COP(=O)(O)OCCN)OC(=O)CCCCCCCCCCCCC :: 805.4396
16. O=C(O)CN(CCO)CCO [Bicine] :: 1070.519
17. CC(=O)CCc1ccc(O[C@@H]2O[C@H](CO)[C@@H](O)[C@H](O)[C@H]2O)cc1 [Raspberry ketone glucoside] :: 1167.769
18. CN1[C@@H]2CC[C@H]1C[C@@H](OC(=O)C(CO)c1ccccc1)C2 (stereo partly shown) [Atropine (sulfate monohydrate)] :: 1099.713
19. N[C@@H](CS)C(=O)NCC(=O)O.O=C(O)C(F)(F)F [Cysteinylglycine (TFA)] :: 954.0897
